format: in vivo, mice; settings: female, CD1-nu/nu (athymic), mouse, tumour (MCF7 xenograft), intravenous, 12.5 mg/kg
outcomeMeasure: concentration at 120 min (µM)
Quick note: give the figure in µM, leave out the unit.

Query: Hello, please tell me recorded concentration at 120 min for this one: `CCN1CCN(CC(=O)Nc2ccc(-c3cccc4c(=O)cc(N5CCOCC5)oc34)c3sc4ccccc4c23)CC1`
Reply: 4.7

====

assay type: in vivo, mice; settings: female, CD1-nu/nu (athymic), mouse, tumour (MCF7 xenograft), intravenous, 12.5 mg/kg
outcomeMeasure: concentration at 60 min (µM)
Quick note: give the figure in µM, leave out the unit.

Query: Item `CCN1CCN(CC(=O)Nc2ccc(-c3cccc4c(=O)cc(N5CCOCC5)oc34)c3sc4ccccc4c23)CC1` : provide concentration at 60 min
Reply: 7

====

experiment: plasma pharmacokinetics following different routes of administration; assay type: in vivo, Balb C mice; settings: female, Balb C, mouse, iv, 10 mg/kg
outcomeMeasure: half-life (h)
Please give a number only; it is taken to be in h.

Query: Output measured half-life for this item: CCN1CCN(CC(=O)Nc2ccc(-c3cccc4c(=O)cc(N5CCOCC5)oc34)c3sc4ccccc4c23)CC1 [KU-0060648]
Reply: 1.7

====

format: in vivo, mice; settings: female, CD1-nu/nu (athymic), mouse, tumour (SW620 xenograft), intravenous, 12.5 mg/kg
outcomeMeasure: concentration at 60 min (µM)
// return numeric value only (unit: µM, not printed)

Query: Specify measured concentration at 60 min for `CCN1CCN(CC(=O)Nc2ccc(-c3cccc4c(=O)cc(N5CCOCC5)oc34)c3sc4ccccc4c23)CC1` .
Reply: 4.9

====

test: plasma pharmacokinetics following different routes of administration; format: in vivo, Balb C mice; conditions: female, Balb C, mouse, po, 10 mg/kg
outcomeMeasure: Tmax
Could you give the number and then its unit, please?

Query: For the compound `CCN1CCN(CC(=O)Nc2ccc(-c3cccc4c(=O)cc(N5CCOCC5)oc34)c3sc4ccccc4c23)CC1` , give its measured Tmax value.
Reply: 2 h

====

assay: plasma pharmacokinetics following different routes of administration; format: in vivo, Balb C mice; settings: female, Balb C, mouse, po, 10 mg/kg
outcomeMeasure: Cmax (µg/mL)
Please reply with the bare figure in µg/mL and do not write the unit itself.

Query: Quick one: give measured Cmax for CCN1CCN(CC(=O)Nc2ccc(-c3cccc4c(=O)cc(N5CCOCC5)oc34)c3sc4ccccc4c23)CC1 [KU-0060648]
Reply: 0.9

====

experiment: plasma pharmacokinetics following different routes of administration; assay type: in vivo, Balb C mice; conditions: female, Balb C, mouse, iv, 10 mg/kg
outcomeMeasure: AUC(0-inf) (ng·h/mL)
Answer with a number only, understood to be in ng·h/mL.

Query: // fetch AUC(0-inf) given entry `CCN1CCN(CC(=O)Nc2ccc(-c3cccc4c(=O)cc(N5CCOCC5)oc34)c3sc4ccccc4c23)CC1`
Reply: 4030

====

assay type: in vivo, mice; conditions: female, CD1-nu/nu (athymic), mouse, plasma, intravenous, 12.5 mg/kg
outcomeMeasure: concentration at 120 min (nM)
# value in nM; strip the unit string

Query: Provide measured concentration at 120 min value, entry: `CCN1CCN(CC(=O)Nc2ccc(-c3cccc4c(=O)cc(N5CCOCC5)oc34)c3sc4ccccc4c23)CC1`
Reply: 800

The values you see were collected from paper PMC3428850.
